Source: PubChem BioAssay (NCI)

Reported TGI values for a set of compounds
System: NCI-H23 lung
Experiment: NCI tumour cell line growth inhibition, 48 h

Solved cases below.
COMPOUND	TEST READOUT	VALUE
CC(C)(O)C(O)COc1c2c(cc3oc(=O)ccc13)OCO2 (centres undefined)	TGI	> 100 µM
O=C(/C=C\c1ccccc1O)c1ccc(O)cc1O	TGI	> 100 µM
COc1ccc2ncn(-c3cc(O[C@H](C)c4ccccc4C(F)(F)F)c(C(N)=O)s3)c2c1	TGI	5.9 µM
CC(=O)OCCn1cnc2c(NCC=C(C)C)ncnc21	TGI	> 100 µM
C=CCN(c1cc(OC)c(NC(C)=O)cc1[N+](=O)[O-])S(C)(=O)=O	TGI	> 100 µM
O=c1c2ccccc2sc2c(NCCCNCCO)nc3ccccc3c12	TGI	7.55 µM

Exam item: Entry under review: CCCCN1C(=O)C2Cc3c([nH]c4ccccc34)C(c3cccc(O)c3)N2C1=O (centres undefined) . Reported TGI?
Marked response: 37.9 µM

Exam item: Next up: CC1(C)OC2C(CCP(=O)(O)O)OC(c3nc(C(N)=O)cs3)C2O1 (centres undefined)
Marked response: > 100 µM

Exam item: Next up: O=C(CCC(=O)Nc1ccc(Cl)c(Cl)c1)Cc1nc2ccccc2o1
Marked response: > 100 µM

---

System: OVCAR-5 ovarian
Assay: NCI tumour cell line growth inhibition, 48 h
Reported TGI values for a set of compounds
Value expressed in µM; do not type the unit.

> print(dat)
                         chemical.structure  endpoint.unit  value
1  O=C(CN(/C=C/C(=O)C(F)(F)F)c1ccc(Cl)cc1)c1ccc(Cl)cc1             µM   32.9

Exam item: Entry under review: O=C(C=P(c1ccccc1)(c1ccccc1)c1ccccc1)c1ccc(-c2cccs2)cc1 . Reported TGI?
Marked response: 17.7

---

Reported log10 of TGI values for a set of molecules
System: MDA-MB-435
Test: NCI tumour cell line growth inhibition, 48 h
Scale: decimal log of TGI, TGI in µM.

MOLECULE	log10 of TGI
COc1ccc(C2(Cl)c3ccccc3N(c3ccccc3)c3ccccc32)cc1	0.19
O=C1N[C@@H]2[C@@H](O)[C@@H](O)[C@H](O)C[C@H]2c2cc3c(c(O)c21)OCCO3	0.09
Oc1ccc(C=Nc2ccccc2O)cc1	1.52
Cc1ccc(O)c(Cc2nc3ccccc3nc2-c2cccc(Cl)c2)c1	1.74
N#CC(c1ccccc1)N(CCCCCCN(C(=O)c1ccccc1)C(C#N)c1ccccc1)C(=O)c1ccccc1 (stereo unspecified)	1.87

Exam item: Entry under review: Cc1cc(S(=O)(=O)NC2=NCc3nc4ccccc4n32)c(S)cc1Cl . Reported log10 of TGI?
Marked response: 1.92

---

Reported TGI values for a set of molecules
Tested on: SNB-75 CNS
Assay: NCI tumour cell line growth inhibition, 48 h
Value expressed in µM; do not type the unit.

Solved cases below.
CHEMICAL STRUCTURE	TESTED SYSTEM	TGI [µM]
COc1cc(/C=C/c2cc(/C=C/c3ccc(O)c(OC)c3)n(C(=O)c3ccc(Cl)cc3)n2)ccc1O	SNB-75 CNS	10.3
Cc1nc([N+](=O)[O-])cn1-c1nc2ccccn2c1[N+](=O)[O-]	SNB-75 CNS	63.7

Exam item: Entry under review: Cc1ccc(O)c(NC(=O)c2cccc(Nc3ccnc(C(F)(F)F)c3)c2)c1 . Reported TGI?
Marked response: 25.3

---

Tested on: UACC-62 melanoma
Experiment: NCI tumour cell line growth inhibition, 48 h
TEST READOUT: TGI

Solved cases below.
> print(dat)
                                   molecule  test.readout     value
1  COc1cc2c(c(OC)c1OC)-c1ccc(OC)c(=O)cc1C(NC(=O)COc1ccccc1)CC2 (stereo not given)           TGI  > 100 µM
2  O=c1oc2ccc3ccccc3c2cc1-c1nnc(Nc2ccccc2)s1           TGI   53.9 µM
3  CC(C)(C)[Si](OC1CCOC1=O)(c1ccccc1)c1ccccc1 (stereo not given)           TGI   29.3 µM
4  CC(C)[N+]([O-])(CCCNc1c2ccccc2nc2cccc([N+](=O)[O-])c12)C(C)C           TGI  0.356 µM
5  O=C(C=P(c1ccccc1)(c1ccccc1)c1ccccc1)c1ccc(-c2cccs2)cc1           TGI   10.7 µM
6        CCCCCCCCCCCCCCCC1=NCC[N+]1(CCO)CCO           TGI   3.27 µM
7  COc1ccccc1Nc1nc2c([nH]1)c(=O)n(C)c(=O)n2C           TGI   > 10 µM
8  Cc1ccc(C)n1-c1ccccc1C1C=Cn2c(=O)nnc3c(OC(C)C)c(OC(C)C)c(O)c1c32 (stereo not given)           TGI  > 100 µM
9                     CN(Cc1ccccc1)Cn1ccnc1           TGI  > 100 µM

Exam item: Entry under review: Cc1ccc(O)c(Cc2nc3ccccc3nc2-c2cccc(Cl)c2)c1 . Reported TGI?
Marked response: > 100 µM

---

Reported TGI values for a set of molecules
Tested on: HT29 colon
Test: NCI tumour cell line growth inhibition, 48 h

> print(dat)
                                   molecule  tested.system  test.readout     value
1    O=c1c2ccccc2sc2c(NCCCNCCO)nc3ccccc3c12     HT29 colon           TGI   2.97 µM
2  C=CCNC(=O)NCCCCC(NC(C)=O)C(=O)NCc1ccccc1 (stereo unspecified)     HT29 colon           TGI  > 100 µM
3           O=C(NCCCCN1CCOCC1)c1cc2ccccc2o1     HT29 colon           TGI  > 100 µM
4  CCc1cccc(C(C)C)c1NC(=O)C(=O)C1C(=O)Nc2ccccc2S1=O (stereo unspecified)     HT29 colon           TGI  > 100 µM
5         c1ccc2c(CSCc3cccc4ccccc34)cccc2c1     HT29 colon           TGI  > 100 µM

Now look at this entry.
Exam item: API: value(readout=TGI, system=HT29 colon) for record COc1ccc2c(c1)C(=O)c1c-2n(CCCN(C)C)c(=O)c2ccccc12
Marked response: 10.9 µM

---

Reported TGI values for a set of compounds
Tested on: LOX IMVI melanoma
Test: NCI tumour cell line growth inhibition, 48 h

Solved cases below.
> print(dat)
                                   compound  test.readout     value
1  COc1cc2cc(OC(C)=O)c3cc4c(cc3c2c(OC)c1OC)OCO4           TGI  > 100 µM
2  CC1(C)OC2C(CCP(=O)(O)O)OC(c3nc(C(N)=O)cs3)C2O1 (stereo unspecified)           TGI  > 100 µM
3  Cc1onc(-c2ccccc2)c1C(=O)N/N=C/c1cc(Cl)cc(Cl)c1O           TGI   32.3 µM
4     COc1cccc2c1c1ccc3c(c1n2C)C(=O)C=CC3=O           TGI   32.2 µM
5  Nc1nc(/C=C\c2ccc([N+](=O)[O-])s2)nc(N2CCN(c3ccccc3)CC2)n1           TGI   29.1 µM

Exam item: Entry under review: CC(=O)Oc1ccccc1 . Reported TGI?
Marked response: > 100 µM

Exam item: Next up: CCOC(=O)c1nc2cc(C(F)(F)F)ccc2nc1Oc1ccc(C#N)cc1
Marked response: > 100 µM

---

Test system: HOP-92 NSCLC
Assay: NCI tumour cell line growth inhibition, 48 h
Reported TGI values for a set of molecules

> print(dat)
                                   molecule     value
1  c1csc(-c2nn3c(C45CC6CC(CC(C6)C4)C5)nnc3s2)c1  > 100 µM
2      Cc1ccc2c(c1)C(=C(C#N)C#N)CCCS2(=O)=O  > 100 µM
3  CC1Cc2c(Cl)ncnc2N(C)c2ccc(Cl)cc21 (stereo unspecified)  0.986 µM

Exam item: Entry under review: CC(C)(O)C(O)COc1c2c(cc3oc(=O)ccc13)OCO2 (stereo unspecified) . Reported TGI?
Marked response: > 100 µM

Exam item: Next up: CC(C)(C)[Si](OC1CCOC1=O)(c1ccccc1)c1ccccc1 (stereo unspecified)
Marked response: > 10 µM

---

Reported GI50 values for a set of molecules
Test system: MALME-3M melanoma
Assay: NCI tumour cell line growth inhibition, 48 h

Solved cases below.
> print(dat)
                                   molecule        value
1  Cc1ccc(O)c(NC(=O)c2cccc(Nc3ccnc(C(F)(F)F)c3)c2)c1     19200 nM
2  CN[C@H]1CN(c2ccc3c(=O)c(C(=O)O)cn(-c4nccs4)c3n2)C[C@@H]1OC       516 nM
3  Clc1c(Cl)[n+](Cc2ccc3ccccc3c2)cn1Cc1ccc2ccccc2c1      1400 nM
4  Cc1nn(CNc2ccccc2C(F)(F)F)c(=S)n1/N=C/c1cccc2cccnc12  > 100000 nM
5  NS(=O)(=O)OC[C@H]1C[C@@H](Nc2ccnc3cc(-c4cccc(SC(F)(F)F)c4)nn23)[C@H](O)[C@@H]1O      27.5 nM
6  O=C1N[C@@H]2[C@@H](O)[C@@H](O)[C@H](O)C[C@H]2c2cc3c(c(O)c21)OCCO3       209 nM
7  Oc1c(Cl)cc(Cl)c(Cl)c1CNCCNCc1c(O)c(Cl)cc(Cl)c1Cl      1110 nM
8  COc1c/c(=C2\C=c3ccccc3=N2)[nH]/c1=C\c1[nH]c(C)cc1C      32.8 nM

Now look at this entry.
Exam item: API: value(readout=GI50, system=MALME-3M melanoma) for record COc1cc(/C=C2\CC3C4CC=C5C[C@@H](OC(C)=O)CC[C@]5(C)C4CC[C@]3(C)C2=O)ccc1OCCN1CCCCC1 (some centres undefined)
Marked response: 1660 nM
